# Lookup of reported IC50 keyed by entry
- SUBJECT OF TEST: BRD2-1: Domain 1 of BRD2 (Homo sapiens, UniProt P25440)
- Construct: BRD2-1: Domain 1 of BRD2
- Sequence (P25440 74-180 limits assumed): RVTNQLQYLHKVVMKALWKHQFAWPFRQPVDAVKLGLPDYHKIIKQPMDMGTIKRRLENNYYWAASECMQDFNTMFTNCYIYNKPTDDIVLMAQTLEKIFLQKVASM
- RUN DESCRIPTION: Bromodomain binding assay (Example 6), BRD2-1
Where a name gives a salt, the structure may show the parent alone.
PROPERTY LABEL: IC50 (µM)

1. COc1cc2c(cc1-c1c(C)noc1C)ncc1nc(C3CCC(F)(F)CC3)n([C@H](C)COC(F)F)c12 [2(h)]; 0.047
2. COc1cc2c(cc1-c1c(C)noc1C)ncc1nc(C3CCOCC3)n([C@H](C)COC(F)F)c12 [2(g)]; 0.024
3. COc1cc2c(cc1-c1c(C)noc1C)ncc1nc(C3CC3)n([C@H](C)COC(F)F)c12.Cl [2(l), hydrochloride]; 0.042
4. COc1cc2c(cc1-c1c(C)noc1C)ncc1nc(CN3CCOCC3)n([C@H](C)COC(F)F)c12 [3(a), trihydrochloride]; 0.019
5. COc1cc2c(cc1-c1c(C)noc1C)ncc1nc(CN(C)C)n([C@H](C)COC(F)F)c12 [3(b)]; 0.032
6. COc1cc2c(cc1-c1c(C)noc1C)ncc1nc(C3CCOCC3)n([C@@H](C)COC(F)F)c12 [2(a)]; 0.063

====

- SUBJECT OF TEST: BRD4-FL (Homo sapiens, UniProt O60885)
- Construct: BRD4-FL: Full length BRD4
- RUN DESCRIPTION: BET Bromodomain AlphaScreen assay (Example 9), BRD4-FL
Where a name gives a salt, the structure may show the parent alone.
PROPERTY LABEL: log10 of EC50 (log10 of the value in nM)

1. COc1cc2c(cc1-c1c(C)noc1C)ncc1nc(C3CCOCC3)n([C@H](C)COC(F)F)c12; 0.86
2. COc1cc2c(cc1-c1c(C)noc1C)ncc1nc(C3CC3)n([C@H](C)COC(F)F)c12.Cl [2(l), hydrochloride]; 1.52
3. COc1cc2c(cc1-c1c(C)noc1C)ncc1nc(CN3CCOCC3)n([C@H](C)COC(F)F)c12 [3(a), trihydrochloride]; 0.98
4. COc1cc2c(cc1-c1c(C)noc1C)ncc1nc(C3CCOCC3)n([C@H]3CC[C@H](OC(F)F)CC3)c12 [2(r)]; 2.61
5. COc1cc2c(cc1-c1c(C)noc1C)ncc1nc(C3CCOCC3)n([C@@H](C)COC(F)F)c12; 1.61
6. COc1cc2c(cc1-c1c(C)noc1C)ncc1nc(CN(C)C)n([C@H](C)COC(F)F)c12 [3(b).HCl]; 1.50
7. COc1cc2c(cc1-c1c(C)noc1C)ncc1nc(C3CCC(F)(F)CC3)n([C@H](C)COC(F)F)c12; 1.66

====

Catalogue of pEC50 readings, one per entry.
- SUBJECT OF TEST: BRD2-1 (Homo sapiens, UniProt P25440)
- Construct: BRD2-1: Domain 1 of BRD2
- RUN DESCRIPTION: BET Bromodomain AlphaScreen assay (Example 9), BRD2-1
pEC50: −log10 of the molar value. Where a name gives a salt, the structure may show the parent alone.
PROPERTY LABEL: pEC50

1) COc1cc2c(cc1-c1c(C)noc1C)ncc1nc(C3CCOCC3)n([C@@H](C)COC(F)F)c12 [2(a)]; 7.20
2) COc1cc2c(cc1-c1c(C)noc1C)ncc1nc(C3CCOCC3)n([C@H](C)COC(F)F)c12 [2(g)]; 8.16
3) COc1cc2c(cc1-c1c(C)noc1C)ncc1nc(CN3CCOCC3)n([C@H](C)COC(F)F)c12 [3(a), trihydrochloride]; 7.71
4) COc1cc2c(cc1-c1c(C)noc1C)ncc1nc(C3CCC(F)(F)CC3)n([C@H](C)COC(F)F)c12 [2(h)]; 7.56
5) COc1cc2c(cc1-c1c(C)noc1C)ncc1nc(C3CCOCC3)n([C@H]3CC[C@H](OC(F)F)CC3)c12 [2(r)]; 6.55
6) COc1cc2c(cc1-c1c(C)noc1C)ncc1nc(CN(C)C)n([C@H](C)COC(F)F)c12 [3(b).HCl]; 7.49
7) COc1cc2c(cc1-c1c(C)noc1C)ncc1nc(C3CC3)n([C@H](C)COC(F)F)c12.Cl [2(l), hydrochloride]; 7.37

====

- Test system: TEX
- RUN DESCRIPTION: Oncology cell growth assay, TEX
- Assay type: cell-based, human
- MEASUREMENT CONDITIONS: AML (acute myeloid leukemia), gIC50, 72 hours
PROPERTY LABEL: IC50 (nM)

1. COc1cc2c(cc1-c1c(C)noc1C)ncc1nc(C3CCOCC3)n([C@H](C)COC(F)F)c12.Cl [2(g)·HCl]; 23

====

- System: HL60
- RUN DESCRIPTION: Oncology cell growth assay, HL60
- Assay type: cell-based, human
- MEASUREMENT CONDITIONS: HL60, Promyelocytic leukemia; gIC50, 72 hours
PROPERTY LABEL: IC50 (nM)

1. COc1cc2c(cc1-c1c(C)noc1C)ncc1nc(C3CCOCC3)n([C@H](C)COC(F)F)c12.Cl [2(g)·HCl]; 51

====

- RUN DESCRIPTION: Liver microsome stability, mouse
- Format: in vitro ADME, mouse (CD-1
- MEASUREMENT CONDITIONS: male, CD-1, mouse, pooled mouse liver microsomes, 1 μM compound, 0.5 mg/ml microsomes, 37° C., read-out: % recovery Mouse Liver Microsomes (MLM) (30 min)
- Description: Working stocks were initially diluted to a concentration of 40.0 μM in 0.1 M potassium phosphate buffer before addition to the reaction vials. Pooled mouse (CD-1, male) or human (50 donors) liver microsomes were utilized at a final concentration of 0.5 mg/ml. Duplicate wells were used for each time point (0 and 30 minutes). Reactions were carried out at 37° C. in a shaker, and the final concentration of DMSO was kept constant at 0.01%. […]
Where a name gives a salt, the structure may show the parent alone.
PROPERTY LABEL: recovery at 30 min, 1 μM (%)

1) COc1cc2c(cc1-c1c(C)noc1C)ncc1nc(CN3CCC(F)(F)C3)n([C@H](C)COC(F)F)c12; 10.4
2) COc1cc2c(cc1-c1c(C)noc1C)ncc1nc(C3CCOCC3)n([C@H](C)COC(F)F)c12; 55.5
3) COc1cc2c(cc1-c1c(C)noc1C)ncc1nc(CN3CCOCC3)n([C@H](C)COC(F)F)c12 [3(a), trihydrochloride]; 3.7
4) COc1cc2c(cc1-c1c(C)noc1C)ncc1nc(C3CCC(F)(F)CC3)n([C@H](C)COC(F)F)c12; 35.2

====

- SUBJECT OF TEST: BRD3-1 (Homo sapiens, UniProt Q15059)
- Construct: BRD3-1: Domain 1 of BRD3
- Sequence (Q15059 34-140 limits assumed): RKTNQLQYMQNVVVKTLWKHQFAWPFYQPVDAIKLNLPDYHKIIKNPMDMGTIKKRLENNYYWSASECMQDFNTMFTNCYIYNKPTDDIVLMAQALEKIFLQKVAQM
- RUN DESCRIPTION: BET Bromodomain AlphaScreen assay (Example 9), BRD3-1
Where a name gives a salt, the structure may show the parent alone.
EC50 reference
PROPERTY LABEL: EC50 (nM)

1) COc1cc2c(cc1-c1c(C)noc1C)ncc1nc(C3CCOCC3)n([C@@H](C)COC(F)F)c12; 43.8
2) COc1cc2c(cc1-c1c(C)noc1C)ncc1nc(CN(C)C)n([C@H](C)COC(F)F)c12 [3(b).HCl]; 17.6
3) COc1cc2c(cc1-c1c(C)noc1C)ncc1nc(CN3CCOCC3)n([C@H](C)COC(F)F)c12 [3(a), trihydrochloride]; 10
4) COc1cc2c(cc1-c1c(C)noc1C)ncc1nc(C3CC3)n([C@H](C)COC(F)F)c12.Cl [2(l), hydrochloride]; 20.7
5) COc1cc2c(cc1-c1c(C)noc1C)ncc1nc(C3CCOCC3)n([C@H](C)COC(F)F)c12; 2.76
6) COc1cc2c(cc1-c1c(C)noc1C)ncc1nc(C3CCC(F)(F)CC3)n([C@H](C)COC(F)F)c12; 6.96
7) COc1cc2c(cc1-c1c(C)noc1C)ncc1nc(C3CCOCC3)n([C@H]3CC[C@H](OC(F)F)CC3)c12 [2(r)]; 104

====

- SUBJECT OF TEST: BRD3-1: Domain 1 of BRD3 (Homo sapiens, UniProt Q15059)
- Construct: BRD3-1: Domain 1 of BRD3
- RUN DESCRIPTION: Bromodomain binding assay (Example 6), BRD3-1
Where a name gives a salt, the structure may show the parent alone.
PROPERTY LABEL: IC50 (nM)

1) COc1cc2c(cc1-c1c(C)noc1C)ncc1nc(C3CCOCC3)n([C@H](C)COC(F)F)c12 [2(g)]; 17
2) COc1cc2c(cc1-c1c(C)noc1C)ncc1nc(C3CC3)n([C@H](C)COC(F)F)c12.Cl [2(l), hydrochloride]; 21
3) COc1cc2c(cc1-c1c(C)noc1C)ncc1nc(C3CCC(F)(F)CC3)n([C@H](C)COC(F)F)c12 [2(h)]; 31
4) COc1cc2c(cc1-c1c(C)noc1C)ncc1nc(CN3CCOCC3)n([C@H](C)COC(F)F)c12 [3(a), trihydrochloride]; 10
5) COc1cc2c(cc1-c1c(C)noc1C)ncc1nc(CN(C)C)n([C@H](C)COC(F)F)c12 [3(b)]; 18
6) COc1cc2c(cc1-c1c(C)noc1C)ncc1nc(C3CCOCC3)n([C@@H](C)COC(F)F)c12 [2(a)]; 44
